Assay: Solubility in 0.1 M phosphate buffer (pH 7.0) at room temperature.
Format: physicochemical
Details: read-out: S
Measured solubility accompanies every entry in the list below.
Kindly provide the numeric value in µM only, without the unit symbol.

Example entries and their recorded answers appear below.
COc1cc2cc(C(=O)N3CC(CCl)c4ccc(N)cc43)[nH]c2c(OC)c1OC (stereo not given)
32
CN(C)CCOc1ccc2[nH]c(C(=O)N3CC(CCl)c4ccc(N)cc43)cc2c1 (stereo not given)
700
COc1ccc2[nH]c(C(=O)N3CC(CCl)c4ccc(N)cc43)cc2c1 (stereo not given)
23

Next up:
The reported solubility of the compound COc1cc(OCCN(C)C)c2[nH]c(C(=O)N3CC(CCl)c4ccc(N)cc43)cc2c1 (stereo not given) was 47

* * *

System: EMT6
Assay: Cytotoxicity in murine mammary carcinoma tumor cell line-EMT6, by growth inhibition assay.
Assay type: functional, cell-based
Settings: Mus musculus
Measured IC50 accompanies every entry in the list below.
Kindly provide the numeric value in µM only, without the unit symbol.

Example entries and their recorded answers appear below.
COc1cc2cc(C(=O)N3CC(CCl)c4ccc(N)cc43)[nH]c2cc1OCCN(C)C (stereo not given)
0.11
Nc1ccc2c(c1)N(C(=O)c1cc3cc(NC(=O)c4cc5ccccc5o4)ccc3[nH]1)CC2CCl (stereo not given)
0.19
COc1cc2cc(C(=O)N3CC(CCl)c4ccc(N)cc43)[nH]c2c(OC)c1OC (stereo not given)
0.27
COc1ccc2[nH]c(C(=O)N3CC(CCl)c4ccc(N)cc43)cc2c1 (stereo not given)
0.23
CN(C)CCOc1ccc2[nH]c(C(=O)N3CC(CCl)c4ccc(N)cc43)cc2c1 (stereo not given)
0.12

The value of IC50 recorded for COc1ccc2oc(C(=O)N3CC(CCl)c4ccc(N)cc43)cc2c1 (stereo not given) when tested on EMT6 reads 0.64

The value of IC50 recorded for COc1ccc2oc(S(=O)(=O)N3CC(CCl)c4ccc(N)cc43)cc2c1 (stereo not given) when tested on EMT6 reads 2.6

The value of IC50 recorded for COc1ccc2[nH]c(S(=O)(=O)N3CC(CCl)c4ccc(N)cc43)cc2c1 (stereo not given) when tested on EMT6 reads 4.9

The value of IC50 recorded for COc1cc(OCCN(C)C)c2[nH]c(C(=O)N3CC(CCl)c4ccc(N)cc43)cc2c1 (stereo not given) when tested on EMT6 reads 0.09

The value of IC50 recorded for CCCC(=O)Nc1cc(/C=C/C(=O)N2CC(CCl)c3ccc(N)cc32)n(C)c1 (stereo not given) when tested on EMT6 reads 0.91

Where do the numbers come from? From ChEMBL document CHEMBL1132190.
